Molecular target: ADAM10 (Homo sapiens, UniProt O14672)
Construct: purchased AnaSpec, Inc. AS-72226
Sequence (O14672 214-748): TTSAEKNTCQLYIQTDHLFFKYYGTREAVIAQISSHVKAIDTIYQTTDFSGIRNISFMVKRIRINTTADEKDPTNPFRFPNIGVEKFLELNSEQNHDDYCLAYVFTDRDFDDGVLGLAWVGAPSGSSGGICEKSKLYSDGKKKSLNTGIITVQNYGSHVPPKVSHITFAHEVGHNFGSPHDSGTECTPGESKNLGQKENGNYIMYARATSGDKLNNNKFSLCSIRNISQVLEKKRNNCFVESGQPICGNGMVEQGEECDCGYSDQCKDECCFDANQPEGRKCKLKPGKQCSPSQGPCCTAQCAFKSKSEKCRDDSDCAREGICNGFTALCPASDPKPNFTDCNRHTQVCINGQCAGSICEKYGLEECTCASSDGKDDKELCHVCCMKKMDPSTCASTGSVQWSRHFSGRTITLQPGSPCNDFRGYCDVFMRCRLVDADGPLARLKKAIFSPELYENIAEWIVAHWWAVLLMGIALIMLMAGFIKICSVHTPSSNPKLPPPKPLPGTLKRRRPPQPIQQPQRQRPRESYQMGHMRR
Assay: SensoLyte 520 ADAM10 fluorometric activity assay (AnaSpec AS-72226)
Type: biochemical
Details: FRET peptide substrate, ex/em 495/520 nm; read-out: ADAM 10 IC50 class
pIC50: −log10 of the molar value.
Parameter: pIC50. Scope: all listed entries.

{"SMILES_NOTATION": "CCC(=O)N1[C@@H]2CC[C@H]1[C@H](C(=O)NO)N(S(=O)(=O)c1ccc(Oc3ccc(OC(F)(F)F)cc3)nc1)C2", "pIC50": "< 5.00"}
{"SMILES_NOTATION": "CC(=O)N1[C@@H]2CC[C@H]1[C@H](C(=O)NO)N(S(=O)(=O)c1ccc(Oc3ccc(OC(F)(F)F)cc3)nc1)C2", "pIC50": "< 5.00"}
{"SMILES_NOTATION": "COCCOC(=O)N1[C@@H]2CC[C@H]1[C@H](C(=O)NO)N(S(=O)(=O)c1ccc(Oc3cnn(-c4ccccc4)c3)nc1)C2", "pIC50": "< 5.00"}
{"SMILES_NOTATION": "COc1ccc(Oc2ccc(S(=O)(=O)N3C[C@H]4CC[C@@H]([C@@H]3C(=O)NO)N4C(=O)N3CCOCC3)cn2)cc1F", "pIC50": "5.00 to 6.00"}
{"SMILES_NOTATION": "COCCOC(=O)N1[C@@H]2CC[C@H]1[C@H](C(=O)NO)N(S(=O)(=O)c1ccc(Oc3ccc(OCC(F)(F)F)cc3)nc1)C2", "pIC50": "< 5.00"}
{"SMILES_NOTATION": "COCCOC(=O)N1[C@@H]2CC[C@H]1[C@H](C(=O)NO)N(S(=O)(=O)c1ccc(Oc3ccc(OC(F)(F)F)cc3)nc1)C2", "pIC50": "< 5.00"}
{"SMILES_NOTATION": "CC(C)OC(=O)N1[C@@H]2CC[C@H]1[C@H](C(=O)NO)N(S(=O)(=O)c1ccc(Oc3ccc(F)cc3)nc1)C2", "pIC50": "< 5.00"}
{"SMILES_NOTATION": "CCC(=O)N1[C@@H]2CC[C@H]1[C@H](C(=O)NO)N(S(=O)(=O)c1ccc(Oc3ccc(OC(C)C)cc3)nc1)C2", "pIC50": "< 5.00"}
{"SMILES_NOTATION": "CC(=O)N1[C@@H]2CC[C@H]1[C@H](C(=O)NO)N(S(=O)(=O)c1ccc(Oc3ccc(OC(C)C)cc3)nc1)C2", "pIC50": "< 5.00"}
{"SMILES_NOTATION": "CCOC(=O)N1[C@@H]2CC[C@H]1[C@H](C(=O)NO)N(S(=O)(=O)c1ccc(Oc3ccc(F)cc3)nc1)C2", "pIC50": "< 5.00"}
{"SMILES_NOTATION": "COCCOC(=O)N1[C@@H]2CC[C@H]1[C@H](C(=O)NO)N(S(=O)(=O)c1ccc(Oc3ccc(OC(F)F)cc3)nc1)C2", "pIC50": "5.00 to 6.00"}
{"SMILES_NOTATION": "COC(=O)N1[C@@H]2CC[C@H]1[C@H](C(=O)NO)N(S(=O)(=O)c1ccc(Oc3ccc(F)cc3)nc1)C2", "pIC50": "< 5.00"}
{"SMILES_NOTATION": "COCCOC(=O)N1[C@@H]2CC[C@H]1[C@H](C(=O)NO)N(S(=O)(=O)c1ccc(Oc3ccc(OC)nc3)nc1)C2", "pIC50": "< 5.00"}

Data provenance is patent US20250215010A1.
